What follows is a collection of Ki values obtained with Histamine H3 receptor (Rattus norvegicus).
Sequence (Q9QYN8 whole entry): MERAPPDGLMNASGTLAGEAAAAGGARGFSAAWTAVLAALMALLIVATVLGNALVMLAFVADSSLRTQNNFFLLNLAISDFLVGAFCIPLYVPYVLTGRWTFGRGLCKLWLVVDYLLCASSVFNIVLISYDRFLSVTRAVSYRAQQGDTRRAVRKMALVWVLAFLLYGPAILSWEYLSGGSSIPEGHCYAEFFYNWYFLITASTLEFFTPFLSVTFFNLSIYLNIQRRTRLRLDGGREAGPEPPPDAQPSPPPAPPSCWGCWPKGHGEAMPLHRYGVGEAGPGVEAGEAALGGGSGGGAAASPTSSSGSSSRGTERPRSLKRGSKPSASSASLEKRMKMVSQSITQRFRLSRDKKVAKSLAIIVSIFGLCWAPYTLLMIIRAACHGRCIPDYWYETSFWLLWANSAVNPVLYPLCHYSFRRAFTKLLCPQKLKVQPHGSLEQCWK

# annotated cases, reported Ki shown
> print(dat)
                            molecule.smiles                             target.entity  assay.readout  reported.measurement
1  O=C(c1ccc(-c2ccc(=O)[nH]n2)cc1)N1CCC[C@H]1CN1CCCC1  Histamine H3 receptor (Rattus norvegicus)             Ki                 46 nM
2  Cn1nc(-c2ccc(N3CCN4CCC[C@H]4C3)cc2)ccc1=O  Histamine H3 receptor (Rattus norvegicus)             Ki             > 1000 nM
3  CC(C)N1CCN(c2ccc(-c3ccc(=O)n(C)n3)cc2)CC1  Histamine H3 receptor (Rattus norvegicus)             Ki                419 nM

Reported Ki of CN1CCCN(c2ccc(-c3ccc(=O)n(C)n3)cc2)CC1 : > 1000 nM

###

experiment: Metabolic stability in mouse liver microsomes assessed as half life; type: ADME, Microsome
Parameter half-life: see the listing below.

> print(dat)
                            molecule.smiles  assay.readout  reported.measurement
1  Cn1nc(-c2ccc(C(=O)N3CCC[C@H]3CN3CCCC3)cc2)ccc1=O      half-life              > 40 min
2  Cn1nc(-c2ccc(OC3CCN(C4CCC4)CC3)cc2)ccc1=O      half-life                35 min
3  C[C@@H]1CCCN1CCCOc1ccc(-c2ccc(=O)n(C)n2)cc1      half-life              > 40 min

Reported half-life of O=C(c1ccc(-c2ccc(=O)n(-c3ccc(F)cc3)n2)cc1)N1CCC[C@H]1CN1CCCC1 : > 40 min

###

Parameter AUC: see the listing below.
system: Rattus norvegicus; assay: AUC (0 to 6 hrs) in rat at 5 mg/kg, po; type: ADME, organism-based, Plasma; parameters: time < 6 hr, dose 5 mg/kg, route oral; settings: in vivo
Response body: numeric value in ng·h/mL, unit text excluded.

# annotated cases, reported AUC shown
> print(dat)
                            molecule.smiles  reported.measurement
1  O=C(c1ccc(-c2ccc(=O)n(-c3ccc(F)cc3)n2)cc1)N1CCC[C@H]1CN1CCCC1                  1020
2  Cn1nc(-c2ccc(C(=O)N3CCC[C@H]3CN3CCCC3)cc2)ccc1=O                  2180

Let us examine a further case.
Reported AUC of C[C@@H]1CCCN1CCCOc1ccc(-c2ccc(=O)n(C)n2)cc1 : 538

###

experiment: Metabolic stability in rat liver microsomes assessed as half life; type: ADME, Microsome
Parameter half-life: see the listing below.

> print(dat)
                            molecule.smiles  reported.measurement
1  C[C@@H]1CCCN1CCCOc1ccc(-c2ccc(=O)n(C)n2)cc1              > 40 min
2  O=C(c1ccc(-c2ccc(=O)n(-c3ccc(F)cc3)n2)cc1)N1CCC[C@H]1CN1CCCC1              > 40 min

Reported half-life of Cn1nc(-c2ccc(C(=O)N3CCC[C@H]3CN3CCCC3)cc2)ccc1=O : > 40 min
